ASSAY SETUP: PAMPA
Where a SMILES comes first, the peptide text is derived from it. [ ]: non-standard residue; d: D form. NMeL = CN[C@@H](CC(C)C)C(=O)O; dNMeL = CN[C@H](CC(C)C)C(=O)O; NMeV = CN[C@H](C(=O)O)C(C)C; NMeA = CN[C@@H](C)C(=O)O; Sar = CNCC(=O)O
PROPERTY NAME: PAMPA_R3

CC[C@H](C)[C@@H]1NC(=O)[C@@H](C(C)C)NC(=O)[C@@H](CC(C)C)N(C)C(=O)[C@H]2CCCN2C(=O)[C@@H](CC(C)C)NC(=O)[C@@H](CC(C)C)N(C)C(=O)[C@H](CC(C)C)NC(=O)[C@H]2CCCN2C(=O)[C@H](C)N(C)C(=O)[C@H]2CCCN2C1=O [Design D10.41] (cyclo(I[dP][NMeA][dP]L[dNMeL][dL][dP][dNMeL][dV])) : 5.38E-06
CC[C@H](C)[C@@H]1NC(=O)[C@H](C)NC(=O)[C@H](CC(C)C)NC(=O)[C@@H]2CCCN2C(=O)[C@@H](C(C)C)NC(=O)[C@H](CC(C)C)NC(=O)[C@@H]2CCCN2C(=O)[C@H]2CCCN2C(=O)[C@H](C)NC(=O)[C@H](Cc2ccccc2)NC(=O)[C@@H](CC(C)C)NC(=O)[C@H]2CCCN2C1=O [Design D12.8] (cyclo(L[dV]PLAI[dP][dL]FA[dP]P)) : BQL
CC(C)C[C@H]1C(=O)N[C@@H](C)C(=O)N(C)CC(=O)N2CCC[C@@H]2C(=O)N(C)[C@@H](C(C)C)C(=O)N[C@@H](C(C)C)C(=O)N2CCC[C@H]2C(=O)N2CCC[C@@H]2C(=O)N[C@@H](C)C(=O)N[C@H](C(C)C)C(=O)N1C [Design D10.66] (cyclo(A[Sar][dP][NMeV]VP[dP]A[dV][NMeL])) : BQL

----------
Tested on: Caco-2 cells
PROTOCOL DESCRIPTION: Caco-2 permeability assay (apical to basolateral)
Format: in vitro ADME, human
Set-up: unit not given here
ASSAY SETUP: Caco-2 Papp, replicate 1
Where a SMILES comes first, the peptide text is derived from it. [ ]: non-standard residue; d: D form. NMeF = CN[C@@H](Cc1ccccc1)C(=O)O; NMeL = CN[C@@H](CC(C)C)C(=O)O; NMeV = CN[C@H](C(=O)O)C(C)C
Hi there, I'd appreciate the recorded Caco_R1 for every entry that follows.
Respond using a number only.

Need Caco_R1, item CC(C)C[C@H]1C(=O)N2CCC[C@@H]2C(=O)N(C)[C@@H](C(C)C)C(=O)N[C@@H](C(C)C)C(=O)N2CCC[C@H]2C(=O)N2CCC[C@@H]2C(=O)N[C@@H](C)C(=O)N[C@H](C(C)C)C(=O)N(C)[C@@H](CC(C)C)C(=O)N[C@@H](C)C(=O)N1C [Design D10.5] (cyclo(A[NMeL][dP][NMeV]VP[dP]A[dV][NMeL]))
1.31

Please look up its Caco_R1: CC[C@H](C)[C@@H]1NC(=O)[C@@H](CC(C)C)NC(=O)[C@H](CC(C)C)N(C)C(=O)[C@H](Cc2ccccc2)NC(=O)CN(C)C(=O)[C@@H]2CCCN2C(=O)[C@H](C(C)C)NC(=O)[C@H](Cc2ccccc2)N(C)C(=O)[C@H]2CCCN2C(=O)[C@H](CC(C)C)NC1=O (single isomer, unassigned) [Design D10.1.p2]
2.58

Can you look up the measured Caco_R1 of CC[C@H](C)[C@@H]1NC(=O)[C@H](Cc2ccccc2)N(C)C(=O)[C@H](CC(C)C)N(C)C(=O)[C@@H](C(C)C)NC(=O)[C@@H](C)NC(=O)[C@@H]2CCCN2C(=O)[C@@H](CC(C)C)NC(=O)[C@@H]2CCCN2C(=O)[C@H](C)NC1=O (single isomer, unassigned) [Design D9.6.p1] for me?
4.759

Endpoint output: Caco_R1 of CC[C@H](C)[C@@H]1NC(=O)[C@@H](C(C)C)NC(=O)[C@@H]2CCCN2C(=O)[C@@H](CC(C)C)N(C)C(=O)[C@@H](C(C)C)NC(=O)[C@H](CC(C)C)N(C)C(=O)[C@H]2CCCN2C(=O)[C@@H](C)NC(=O)[C@H](Cc2ccccc2)N(C)C(=O)[C@H]2CCCN2C1=O (single isomer, unassigned) [Design D10.3.p2] . Value?
4.05

Name the recorded Caco_R1 for CC[C@@H](C)[C@H]1NC(=O)[C@H](CC(C)C)NC(=O)[C@@H](CC(C)C)NC(=O)[C@H](C(C)C)NC(=O)[C@@H](Cc2ccccc2)N(C)C(=O)[C@@H]2CCCN2C(=O)[C@@H](CC(C)C)NC(=O)[C@H](CC(C)C)NC(=O)[C@H]2CCCN2C1=O (single isomer, unassigned) [Design D9.4.p2] .
3.27

I would be grateful if you could share the reported Caco_R1 for CC(C)C[C@@H]1NC(=O)[C@@H](C(C)C)NC(=O)[C@H](Cc2ccccc2)N(C)C(=O)[C@H]2CCCN2C(=O)[C@H]2CCCN2C(=O)[C@@H](C)NC(=O)[C@H](Cc2ccccc2)N(C)C(=O)[C@H]2CCCN2C(=O)[C@@H](C(C)C)NC(=O)[C@@H]2CCCN2C1=O [Design D10.4] (cyclo(LP[dV][dP][NMeF][dA][dP][dP][NMeF][dV])) .
1.39

Entry under review: CC[C@H](C)[C@@H]1NC(=O)[C@H](Cc2ccccc2)N(C)C(=O)[C@H](CC(C)C)N(C)C(=O)[C@@H](C(C)C)NC(=O)[C@@H](C)NC(=O)[C@@H]2CCCN2C(=O)[C@@H](CC(C)C)NC(=O)[C@@H]2CCCN2C(=O)[C@H](C)NC1=O (single isomer, unassigned) [Design D9.6.p2] . Reported Caco_R1?
3.08

May I ask what Caco_R1 has been recorded for CC[C@@H](C)[C@H]1NC(=O)[C@H](CC(C)C)NC(=O)[C@@H](CC(C)C)NC(=O)[C@H](C(C)C)NC(=O)[C@@H](Cc2ccccc2)N(C)C(=O)[C@@H]2CCCN2C(=O)[C@@H](CC(C)C)NC(=O)[C@H](CC(C)C)NC(=O)[C@H]2CCCN2C1=O (single isomer, unassigned) [Design D9.4.p1] ?
3.39

----------
ASSAY SETUP: PAMPA
Where a SMILES comes first, the peptide text is derived from it. [ ]: non-standard residue; d: D form. NMeL = CN[C@@H](CC(C)C)C(=O)O
PROPERTY NAME: PAMPA_R3
Answer field: number only, no words.

Need PAMPA_R3 of CC[C@H](C)[C@@H]1NC(=O)[C@H]2CCCN2C(=O)[C@H](CC(C)C)N(C)C(=O)[C@H](CC(C)C)NC(=O)[C@H](C(C)C)NC(=O)[C@@H]2CCCN2C(=O)[C@H](CC(C)C)N(C)C(=O)[C@H](C(C)C)NC(=O)[C@@H](C(C)C)NC1=O [Design D9.39, DVAL VAL *LEU PRO VAL LEU *LEU DPRO ILE] (cyclo(I[dV]V[NMeL]PVL[NMeL][dP])) , thanks.
2.78E-07

So what's the measured PAMPA_R3 for this one? CC(C)[C@@H]1NC(=O)[C@H]2CCCN2C(=O)[C@@H](C(C)C)NC(=O)[C@@H]2CCCN2C(=O)[C@H](Cc2ccccc2)NC(=O)[C@H](Cc2ccccc2)NC(=O)[C@H]2CCCN2C(=O)[C@@H](C(C)C)NC(=O)[C@@H]2CCCN2C(=O)[C@H](C(C)C)NC1=O [Design D10.27] (cyclo(FFP[dV][dP]VVP[dV][dP]))
5.10E-07

----------
ASSAY SETUP: PAMPA
Where a SMILES comes first, the peptide text is derived from it. [ ]: non-standard residue; d: D form. NMeF = CN[C@@H](Cc1ccccc1)C(=O)O; dNMeL = CN[C@H](CC(C)C)C(=O)O; Sar = CNCC(=O)O
PROPERTY NAME: PAMPA_R3
The answer should be written as a number, with no unit following it.

Name the reported PAMPA_R3 value associated with the molecule CC(C)C[C@@H]1C(=O)N[C@H](C)C(=O)N(C)[C@H](CC(C)C)C(=O)N2CCC[C@@H]2C(=O)N[C@H](CC(C)C)C(=O)N[C@@H](C)C(=O)N[C@H](CC(C)C)C(=O)N2CCC[C@@H]2C(=O)N1C [Design D8.25, DLEU DPRO *DLEU DALA *DLEU DPRO DLEU ALA] (cyclo(A[dL][dP][dNMeL][dA][dNMeL][dP][dL]))
9.32E-07

Reported PAMPA_R3, molecule CC[C@H](C)[C@@H]1NC(=O)[C@@H]2CCCN2C(=O)CN(C)C(=O)[C@@H](CC(C)C)NC(=O)[C@@H](CC(C)C)N(C)C(=O)[C@@H]2CCCN2C(=O)[C@H](Cc2ccccc2)N(C)C(=O)[C@@H](Cc2ccccc2)NC1=O [Design D8.15, PRO ILE DPHE*PHE PRO *DLEU DLEU *GLY] (cyclo(I[dF][NMeF]P[dNMeL][dL][Sar]P)) : ____
9.27E-07
